Study System: Apoptosis regulator BAX (Homo sapiens, UniProt Q07812)
Sequence (Q07812 whole entry): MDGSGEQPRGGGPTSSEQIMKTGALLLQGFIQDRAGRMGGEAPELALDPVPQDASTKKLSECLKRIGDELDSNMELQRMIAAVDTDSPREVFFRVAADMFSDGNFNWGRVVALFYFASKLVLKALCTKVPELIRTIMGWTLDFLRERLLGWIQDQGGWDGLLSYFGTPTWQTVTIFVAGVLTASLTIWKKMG
Method Summary: Inhibition of recombinant human BAX expressed in Escherichia coli BL21 (DE3) assessed as inhibition of liposome permeabilization and measured for 2 hrs by fluorescence analysis
# pIC50 values compiled below
FYI, pIC50 means -log10 of a concentration in mol per litre.

{"columns": ["Smiles Input", "Endpoint", "Numeric Readout"],
 "data": [
  ["COCCOCOc1ccc2c(c1)O[C@H](CN(Cc1ccc(Br)cc1)C(=O)[C@H](Cc1ccccc1)NC(=O)c1ccccc1)[C@H]2N", "pIC50", 5.40]
]}

Input line: Given the entry COCCOCOc1ccc2c(c1)O[C@H](CN)[C@H]2N(Cc1ccc(Br)cc1)C(=O)[C@H](Cc1ccccc1)NC(=O)c1ccccc1 , report its measured pIC50.
Output line: 5.22
